Can you tell me folding stability dG unfold for the items I'm about to list?
# MEASUREMENT NOTES: folding stability dG unfold from chymotrypsin proteolysis; higher = more stable
Express the result in kcal/mol but write the number alone.

// folding stability dG unfold value for SAGGSPIIRVKVTYYPPDGSVTVYLPADSVDELIDALNSVPDIPVTPTDGDTIIASTPDAIVEITVESSAGG [r13_143_TrMRF] : 0.849

// folding stability dG unfold value for SAGGSAGGSAGGPWYVRIEYTPPNGNKETFIIPSPEEIDEWAEPFGVPVKIEPIPPGDPISAGGSAGGSAGG [r7_456_TrROS] : 0.604

// folding stability dG unfold value for SAGGSAGGSAGKTYTLTITTENGKTITLPKDVEVVYDEKTGYLYIKNKKTNKVIKVKLKDSAGGSAGGSAGG [r17_432_TrROS_Hall] : 2.21

// folding stability dG unfold value for SASPEDTVTTTETEPTTISLGTASIPPDLEVLSVTVTTTTTTTYKVEPPGVPVKLSSTTTTTTTVTLKRTSA [r9_747_JUSTAS] : 2.45
